These entries and their values trace back to patent US20100093028A1.

IC50 reference
- target: T1, vascular endothelial growth factor (UniProt P15692-4 27-191, limits assumed, biotin label (Example 5), site not stated)
- T1 construct: also called VEGF; VegF
- T1 sequence (P15692 other isoform, or with tags, fused parts or gaps limits assumed): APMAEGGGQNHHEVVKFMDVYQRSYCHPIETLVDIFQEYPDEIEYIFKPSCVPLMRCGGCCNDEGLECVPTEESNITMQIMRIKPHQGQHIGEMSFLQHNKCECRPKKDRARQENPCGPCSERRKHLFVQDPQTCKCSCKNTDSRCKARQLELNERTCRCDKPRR
- experimental_details: BioVeris ECL competition with a labeled competitor; legend: ++ = IC50 about 10-50 µM

Use these answered entries as a reference point.
{"binder": "BBIt-VEGF-V3-A13I-S25R-M27A-L29P-S31A-F50K-V52T (designed binder, also called BBIt-AV-V3) DPDDESSKPCCDQCICTKSNPPQCRCRDARPNACHSACKSCACRPTGHSLCKCTDITDFCYEPCKPSE", "observation_type": "IC50", "endpoint_value": "10 to 50 µM"}
{"binder": "BBIt-VEGF-V5-A13I-S25R-M27A-L29P-S31A-F50K-V52T (designed binder, also called BBIt-AV-V5) DPDDESSKPCCDQCICTKSNPPQCRCRDARPNACHSACKSCACKPSSASSCKCTDITDFCYEPCKPSE", "observation_type": "IC50", "endpoint_value": "10 to 50 µM"}

IC50 for BBIt-VEGF-V1-A13I-S25R-M27A-L29P-S31A-F50K-V52T (designed binder, also called BBIt-AV-V1) DPDDESSKPCCDQCICTKSNPPQCRCRDARPNACHSACKSCACSKHSQITCKCTDITDFCYEPCKPSE is 10 to 50 µM
